# STUDY TARGET: HIV-1LAI envelope gp120 (Human immunodeficiency virus type 1 group M subtype B, UniProt P03377)
# Assay type: binding
# CONDITION: Panel C, 15-mers and 18-mers of CD4; empty control 556
// class assignment uses COUNTS of radiolabeled gp120 retained with these ranges: 1 (below 600 counts), 2 (600 counts to below 800 counts), 3 (800 counts or more)

Prompt: Consider VVLAFQKASSIVYKKEGE . To which COUNTS of radiolabeled gp120 retained class does it belong?
Completion: 1

Prompt: Consider KASSIVYKKEGEQVE . To which COUNTS of radiolabeled gp120 retained class does it belong?
Completion: 1

Prompt: Consider VEFSFPLAFTVEKLT . To which COUNTS of radiolabeled gp120 retained class does it belong?
Completion: 3

Prompt: Consider VLAFQKASSIVYKKE . To which COUNTS of radiolabeled gp120 retained class does it belong?
Completion: 2

Prompt: Consider FTVEKLTGSGELWWQAER . To which COUNTS of radiolabeled gp120 retained class does it belong?
Completion: 3

Prompt: Consider PLAFTVEKLTGSGELWWQ . To which COUNTS of radiolabeled gp120 retained class does it belong?
Completion: 2

Prompt: Consider QVEFSFPLAFTVEKL . To which COUNTS of radiolabeled gp120 retained class does it belong?
Completion: 3

Prompt: Consider YKKEGEQVEFSFPLAFTV . To which COUNTS of radiolabeled gp120 retained class does it belong?
Completion: 3

Prompt: Consider EGEQVEFSFPLAFTVEKL . To which COUNTS of radiolabeled gp120 retained class does it belong?
Completion: 3

Prompt: Consider EGEQVEFSFPLAFTV . To which COUNTS of radiolabeled gp120 retained class does it belong?
Completion: 3

Prompt: Consider EFSFPLAFTVEKLTGSGE . To which COUNTS of radiolabeled gp120 retained class does it belong?
Completion: 2

Prompt: Consider TCTVLQNQKKVEFKI . To which COUNTS of radiolabeled gp120 retained class does it belong?
Completion: 1

Prompt: Consider SSIVYKKEGEQVEFS . To which COUNTS of radiolabeled gp120 retained class does it belong?
Completion: 1

Prompt: Consider ASSIVYKKEGEQVEFSFP . To which COUNTS of radiolabeled gp120 retained class does it belong?
Completion: 2

Prompt: Consider VLAFQKASSIVYKKEGEQ . To which COUNTS of radiolabeled gp120 retained class does it belong?
Completion: 1

Prompt: Consider IVYKKEGEQVEFSFPLAF . To which COUNTS of radiolabeled gp120 retained class does it belong?
Completion: 3

Prompt: Consider KIDIVVLAFQKASSI . To which COUNTS of radiolabeled gp120 retained class does it belong?
Completion: 3

Prompt: Consider IVVLAFQKASSIVYKKEG . To which COUNTS of radiolabeled gp120 retained class does it belong?
Completion: 1

Prompt: Consider VVLAFQKASSIVYKK . To which COUNTS of radiolabeled gp120 retained class does it belong?
Completion: 1

Prompt: Consider VYKKEGEQVEFSFPL . To which COUNTS of radiolabeled gp120 retained class does it belong?
Completion: 2

Prompt: Consider VEFSFPLAFTVEKLTGSG . To which COUNTS of radiolabeled gp120 retained class does it belong?
Completion: 1

Prompt: Consider AFQKASSIVYKKEGE . To which COUNTS of radiolabeled gp120 retained class does it belong?
Completion: 1

Prompt: Consider LQNQKKVEFKIDIVVLAF . To which COUNTS of radiolabeled gp120 retained class does it belong?
Completion: 3

Prompt: Consider FSFPLAFTVEKLTGS . To which COUNTS of radiolabeled gp120 retained class does it belong?
Completion: 2

Prompt: Consider QKKVEFKIDIVVLAF . To which COUNTS of radiolabeled gp120 retained class does it belong?
Completion: 3

Prompt: Consider KKEGEQVEFSFPLAFTVE . To which COUNTS of radiolabeled gp120 retained class does it belong?
Completion: 3

Prompt: Consider AFQKASSIVYKKEGEQVE . To which COUNTS of radiolabeled gp120 retained class does it belong?
Completion: 1

Prompt: Consider KEGEQVEFSFPLAFT . To which COUNTS of radiolabeled gp120 retained class does it belong?
Completion: 3

Prompt: Consider VEKLTGSGELWWQAE . To which COUNTS of radiolabeled gp120 retained class does it belong?
Completion: 2

Prompt: Consider FQKASSIVYKKEGEQ . To which COUNTS of radiolabeled gp120 retained class does it belong?
Completion: 2

Prompt: Consider VLQNQKKVEFKIDIVVLA . To which COUNTS of radiolabeled gp120 retained class does it belong?
Completion: 2

Prompt: Consider QVEFSFPLAFTVEKLTGS . To which COUNTS of radiolabeled gp120 retained class does it belong?
Completion: 2

Prompt: Consider TVLQNQKKVEFKIDIVVL . To which COUNTS of radiolabeled gp120 retained class does it belong?
Completion: 2

Prompt: Consider SFPLAFTVEKLTGSGELW . To which COUNTS of radiolabeled gp120 retained class does it belong?
Completion: 2

Prompt: Consider QKKVEFKIDIVVLAFQKA . To which COUNTS of radiolabeled gp120 retained class does it belong?
Completion: 3

Prompt: Consider LAFTVEKLTGSGELWWQA . To which COUNTS of radiolabeled gp120 retained class does it belong?
Completion: 3

Prompt: Consider SFPLAFTVEKLTGSG . To which COUNTS of radiolabeled gp120 retained class does it belong?
Completion: 1

Prompt: Consider FTVEKLTGSGELWWQ . To which COUNTS of radiolabeled gp120 retained class does it belong?
Completion: 2

Prompt: Consider GEQVEFSFPLAFTVEKLT . To which COUNTS of radiolabeled gp120 retained class does it belong?
Completion: 3

Prompt: Consider LQNQKKVEFKIDIVV . To which COUNTS of radiolabeled gp120 retained class does it belong?
Completion: 2

Prompt: Consider NQKKVEFKIDIVVLAFQK . To which COUNTS of radiolabeled gp120 retained class does it belong?
Completion: 3

Prompt: Consider WTCTVLQNQKKVEFK . To which COUNTS of radiolabeled gp120 retained class does it belong?
Completion: 1

Prompt: Consider LAFTVEKLTGSGELW . To which COUNTS of radiolabeled gp120 retained class does it belong?
Completion: 1

Prompt: Consider QNQKKVEFKIDIVVLAFQ . To which COUNTS of radiolabeled gp120 retained class does it belong?
Completion: 3

Prompt: Consider SIVYKKEGEQVEFSFPLA . To which COUNTS of radiolabeled gp120 retained class does it belong?
Completion: 2

Prompt: Consider SIVYKKEGEQVEFSF . To which COUNTS of radiolabeled gp120 retained class does it belong?
Completion: 2

Prompt: Consider TVEKLTGSGELWWQA . To which COUNTS of radiolabeled gp120 retained class does it belong?
Completion: 1

Prompt: Consider QKASSIVYKKEGEQV . To which COUNTS of radiolabeled gp120 retained class does it belong?
Completion: 1

Prompt: Consider FQKASSIVYKKEGEQVEF . To which COUNTS of radiolabeled gp120 retained class does it belong?
Completion: 1

Prompt: Consider EKLTGSGELWWQAER . To which COUNTS of radiolabeled gp120 retained class does it belong?
Completion: 2

Prompt: Consider TCTVLQNQKKVEFKIDIV . To which COUNTS of radiolabeled gp120 retained class does it belong?
Completion: 1

Prompt: Consider KKEGEQVEFSFPLAF . To which COUNTS of radiolabeled gp120 retained class does it belong?
Completion: 3

Prompt: Consider EQVEFSFPLAFTVEK . To which COUNTS of radiolabeled gp120 retained class does it belong?
Completion: 3

Prompt: Consider FPLAFTVEKLTGSGE . To which COUNTS of radiolabeled gp120 retained class does it belong?
Completion: 1

Prompt: Consider CTVLQNQKKVEFKIDIVV . To which COUNTS of radiolabeled gp120 retained class does it belong?
Completion: 1

Prompt: Consider NQKKVEFKIDIVVLA . To which COUNTS of radiolabeled gp120 retained class does it belong?
Completion: 3

Prompt: Consider YKKEGEQVEFSFPLA . To which COUNTS of radiolabeled gp120 retained class does it belong?
Completion: 2

Prompt: Consider FKIDIVVLAFQKASSIVY . To which COUNTS of radiolabeled gp120 retained class does it belong?
Completion: 3

Prompt: Consider SSIVYKKEGEQVEFSFPL . To which COUNTS of radiolabeled gp120 retained class does it belong?
Completion: 2
